Entry source: paper PMC3218832

biological target: p50p50 homodimer (Homo sapiens, UniProt P19838 7-356); experiment: protein binding microarray; high values mean tight binding; conditions: dsDNA, one strand shown
Sequence (P19838 7-356): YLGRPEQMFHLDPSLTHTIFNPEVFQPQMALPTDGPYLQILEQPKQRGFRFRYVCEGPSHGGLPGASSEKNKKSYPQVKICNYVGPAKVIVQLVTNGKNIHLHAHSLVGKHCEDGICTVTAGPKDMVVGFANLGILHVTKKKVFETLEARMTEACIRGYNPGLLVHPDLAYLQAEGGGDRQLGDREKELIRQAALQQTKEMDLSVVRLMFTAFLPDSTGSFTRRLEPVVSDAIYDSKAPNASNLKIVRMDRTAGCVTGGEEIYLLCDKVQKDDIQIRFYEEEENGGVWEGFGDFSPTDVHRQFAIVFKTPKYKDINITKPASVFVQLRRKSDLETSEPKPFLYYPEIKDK
Mark no for binding signal values under 0.5 z-score, and yes for everything at or above.

Would you please look over these solved cases?
binding signal >= 0.5 z-score for GGGTGTTTCCT ? yes

binding signal >= 0.5 z-score for AAATTTGCCCT ? no

binding signal >= 0.5 z-score for CAAAGCGTCCT ? no

binding signal >= 0.5 z-score for AAAGTGGTCCC ? no

binding signal >= 0.5 z-score for CGAAGACTCCC ? no

---
binding signal >= 0.5 z-score for GAATATTCCCT ? yes

binding signal >= 0.5 z-score for AGAAACTTCCC ? yes

binding signal >= 0.5 z-score for GAATAGACCCT ? no

binding signal >= 0.5 z-score for CAGTGGCTCCC ? no

binding signal >= 0.5 z-score for AGATTACCCCC ? yes

binding signal >= 0.5 z-score for GAAGGCCCCCC ? yes

binding signal >= 0.5 z-score for CAATATACCCC ? no

binding signal >= 0.5 z-score for CGGTATGTCCT ? no

binding signal >= 0.5 z-score for GAAAAAACCCC ? yes

binding signal >= 0.5 z-score for AGATGGCTCCC ? no

binding signal >= 0.5 z-score for GAGTAATTCCT ? no

binding signal >= 0.5 z-score for CGGAGAGTCCT ? no

binding signal >= 0.5 z-score for CAAGTATTCCT ? no

binding signal >= 0.5 z-score for AAAGTGATCCT ? no

binding signal >= 0.5 z-score for AGATGAATCCT ? no

binding signal >= 0.5 z-score for CAAAAGACCCT ? no

binding signal >= 0.5 z-score for AAGGGAATCCC ? yes
